target.entity: T1, hK1 (human tissue kallikrein 1), recombinant (human, UniProt P06870 25-262)
T1 construct: Expressed in P. pastoris from KLK1 cDNA and purified; enzymatically active; also called KLK1; Recombinant (Pichia) Kallikrein
experiment.summary: SPR

binder	unit.label	kon
M0128-F11 (Fab, V domains shown) VH: EVQLLESGGGLVQPGGSLRLSCAASGFTFSFYVMGWVRQAPGKGLEWVSWIGPSGGRTWYADSVKGRFTISRDNSKNTLYLQMNSLRAEDTAVYYCARDRGWYGIDVWGQGTTVTVSS VL: DIQMTQSPSSLSASVGDRVTITCRASQYISTYLAWYQQKPGKAPKLLIYKASDLESGVPSRFSGSGSGTEFTLTINSLQPDDFATYYCQQYNTYWTFGHGTKVEIKR	M⁻¹ s⁻¹	780000
M0112-C02 (Fab, V domains shown) VH: EVQLLESGGGLVQPGGSLRLSCAASGFTFSNYYMLWVRQAPGKGLEWVSYIRSSGGSTRYADSVKGRFTISRDNSKNTLYLQMNSLRAEDTAVYYCAKPTVDGAFDYWGQGTLVTVSS VL: DIQMTQSPGTLSLSPGDRATLSCRASQSVSSNYLAWYQQKPGQAPRLLIYGASSRATGIPDRFSGSGSGTDFTLTISRLEPEDFGVYYCQQFGSSLFTFGPGTKVNIKR	M⁻¹ s⁻¹	481000
M0095-H10 (Fab, V domains shown) VH: EVQLLESGGGLVQPGGSLRLSCAASGFTFSNYKMQWVRQAPGKGLEWVSSIYSSGGKTVYADSVKGRFTISRDNSKNTLYLQMNSLRAEDTAVYYCARTPGYNYFDYWGQGTLVTVSS VL: DIQMTQSPSTLSASVGDRVTITCRASQSISSWLAWYQQKPGKAPKLLIYTASSLESGVPSRFSAGGSGTEFTLTISSLQPDDFGTYYCQQYNSYSLTFGGGTKVEIKR	M⁻¹ s⁻¹	556000
M0134-D07 (Fab, V domains shown) VH: EVQLLESGGGLVQPGGSLRLSCAASGFTFSRYFMIWVRQAPGKGLEWVSSIVPSGGPTRYADSVKGRFTISRDNSKNTLYLQMNSLRAEDTAVYYCARRGPVYYYDSSGSHSAFDIWGQGTMVTVSS VL: DIQMTQSPSSLSASVGDRVTITCRASQGIRNDLGWYQQKPGKAPKLLIYAASSLQSGVPSRFSGSGSGTDFTLTISSLQPEDFATYYCLQDYNYPRTFGQGTKVEIKR	M⁻¹ s⁻¹	51300
M0115-F04 (Fab, V domains shown) VH: EVQLLESGGGLVQPGGSLRLSCAASGFTFSNYLMGWVRQAPGKGLEWVSSIGPSGGYTKYADSVKGRFTISRDNSKNTLYLQMNSLRAEDTAVYYCARGTGTTFFWGQGTLVTVSS VL: AQSALTQPPSVSVSPGQTVSITCSGDDLGGRHVSWFQQLSGQSPVLVIYQDDKRPSGIPERFSGSNSGNTATLTISGTQSVDEGDYYCLAWHNYKYVFGSGTTVTVLR	M⁻¹ s⁻¹	314000

Attribution: patent US7329737
